The values you see were collected from ChEMBL document CHEMBL1147755.

Reported values: IC50 for Prostaglandin G/H synthase 1 (Canis lupus familiaris), one per item.
quantity.kind: IC50 (µM)

• CC1CCCN(c2c(C#N)c(C(F)F)nn2-c2ccc(S(C)(=O)=O)cn2)C1 (centres undefined) = 2
• C[C@@H]1CN(c2c(C#N)c(C(F)F)nn2-c2ccc(S(C)(=O)=O)cn2)C[C@H](C)O1 = 43.8
• CCC(C)CNc1c(C#N)c(C(F)(F)F)nn1-c1ccc(S(N)(=O)=O)cn1 (centres undefined) = 4.5

[I] CC(C)C(C)Nc1c(C#N)c(C(F)(F)F)nn1-c1ccc(S(C)(=O)=O)cn1 (centres undefined)
[II] CS(=O)(=O)c1ccc(-n2nc(C(F)(F)F)c(C#N)c2NCC2CCCO2)nc1 (centres undefined)
[III] C[C@@H]1C[C@H](C)CN(c2c(C#N)c(C(F)F)nn2-c2ccc(S(N)(=O)=O)cn2)C1
Exam item: # rank_down: sort by IC50, max first Provide the labels, sequenced as the question asks.
Marked response: II, III, I
(II: 16.5 µM, III: 7 µM, I: 3.4 µM)

* * *

assay.comment: Tmax in dog administered at 2 mg/kg, po
Type: ADME, organism-based, Canis lupus familiaris
Design: dose 2 mg/kg, route oral
experimental.conditions: in vivo
quantity.kind: Tmax (min)

Completed entries (count: 5):
* CC1CCCN(c2c(C#N)c(C(F)F)nn2-c2ccc(S(C)(=O)=O)cn2)C1 (stereo not drawn) | 30
* CCC(C)CNc1c(C#N)c(C(F)(F)F)nn1-c1ccc(S(N)(=O)=O)cn1 (stereo not drawn) | 78
* C[C@@H]1CN(c2c(C#N)c(C(F)(F)F)nn2-c2ccc(S(C)(=O)=O)cn2)C[C@H](C)O1 | 60
* C[C@@H]1CN(c2c(C#N)c(C(F)F)nn2-c2ccc(S(C)(=O)=O)cn2)C[C@H](C)O1 | 84
* C[C@@H]1C[C@H](C)CN(c2c(C#N)c(C(F)F)nn2-c2ccc(S(N)(=O)=O)cn2)C1 | 30

[A] CS(=O)(=O)c1ccc(-n2nc(C(F)(F)F)c(C#N)c2NCC2CCCO2)nc1 (stereo not drawn)
[B] CS(=O)(=O)c1ccc(-n2nc(C(F)F)c(C#N)c2N2CCCCCC2)nc1
[C] N#Cc1c(C(F)(F)F)nn(-c2ccc(S(N)(=O)=O)cn2)c1NCC1CCCO1 (stereo not drawn)
Exam item: Form: Sort by [Tmax] Order [ ascending ] Provide the labels, sequenced as the question asks.
Marked response: A, B, C
(A: 30 min, B: 48 min, C: 90 min)

* * *

Tested on: Canis familiaris
assay.comment: AUC in dog administered at 2 mg/kg, po
Assay type: ADME, organism-based, Canis lupus familiaris, Plasma
Set-up: dose 2 mg/kg, route oral
experimental.conditions: in vivo
quantity.kind: AUC (ng·h/mL)

Completed entries (count: 5):
• N#Cc1c(C(F)(F)F)nn(-c2ccc(S(N)(=O)=O)cn2)c1NCC1CCCO1 (stereo not drawn) = 1360
• CC1CCCN(c2c(C#N)c(C(F)F)nn2-c2ccc(S(C)(=O)=O)cn2)C1 (stereo not drawn) = 450
• C[C@@H]1CN(c2c(C#N)c(C(F)F)nn2-c2ccc(S(C)(=O)=O)cn2)C[C@H](C)O1 = 4830
• C[C@@H]1CN(c2c(C#N)c(C(F)(F)F)nn2-c2ccc(S(C)(=O)=O)cn2)C[C@H](C)O1 = 1950
• C[C@@H]1C[C@H](C)CN(c2c(C#N)c(C(F)F)nn2-c2ccc(S(N)(=O)=O)cn2)C1 = 2100

[A] CS(=O)(=O)c1ccc(-n2nc(C(F)F)c(C#N)c2N2CCCCCC2)nc1
[B] CS(=O)(=O)c1ccc(-n2nc(C(F)(F)F)c(C#N)c2NCC2CCCO2)nc1 (stereo not drawn)
Exam item: Hi there, can you help? I need to know whether A or B has lower measured AUC. Lab note: record the label of whichever item you select.
Marked response: B

* * *

assay.comment: Cmax in dog administered at 2 mg/kg, po
Type: ADME, organism-based, Canis lupus familiaris
Design: dose 2 mg/kg, route oral
experimental.conditions: in vivo
quantity.kind: Cmax (ng/mL)

Completed entries (count: 6):
• C[C@@H]1CN(c2c(C#N)c(C(F)F)nn2-c2ccc(S(C)(=O)=O)cn2)C[C@H](C)O1 = 815
• C[C@@H]1C[C@H](C)CN(c2c(C#N)c(C(F)F)nn2-c2ccc(S(N)(=O)=O)cn2)C1 = 506
• CCC(C)CNc1c(C#N)c(C(F)(F)F)nn1-c1ccc(S(N)(=O)=O)cn1 (stereo not drawn) = 310
• C[C@@H]1CN(c2c(C#N)c(C(F)(F)F)nn2-c2ccc(S(C)(=O)=O)cn2)C[C@H](C)O1 = 134
• CC1CCCN(c2c(C#N)c(C(F)F)nn2-c2ccc(S(C)(=O)=O)cn2)C1 (stereo not drawn) = 151
• CS(=O)(=O)c1ccc(-n2nc(C(F)(F)F)c(C#N)c2NCC2CCCO2)nc1 (stereo not drawn) = 86

[1] CS(=O)(=O)c1ccc(-n2nc(C(F)F)c(C#N)c2N2CCCCCC2)nc1
[2] N#Cc1c(C(F)(F)F)nn(-c2ccc(S(N)(=O)=O)cn2)c1NCC1CCCO1 (stereo not drawn)
Exam item: Determine, for 1 and 2 , which has the greater value of Cmax. Lab note: record the label of whichever item you select.
Marked response: 2

* * *

Below is a list of entries, each paired with its recorded Ratio IC50 value.
Organism: Canis lupus familiaris
assay.comment: Selectivity of COX1 over COX2 in canine whole blood assay
Format: tissue-based
The response must contain the number and no unit.

• CC1CCCN(c2c(C#N)c(C(F)F)nn2-c2ccc(S(C)(=O)=O)cn2)C1 (stereo not given) = 75
• CS(=O)(=O)c1ccc(-n2nc(C(F)F)c(C#N)c2NC2CC3CCC2C3)nc1 (stereo not given) = 49.8

Exam item: Quick one: Ratio IC50 of CCC(C)CNc1c(C#N)c(C(F)(F)F)nn1-c1ccc(S(N)(=O)=O)cn1 (stereo not given) ?
Marked response: 23.1

Exam item: Quick one: Ratio IC50 of CC(C)(C)CNc1c(C#N)c(C(F)F)nn1-c1ccc(S(N)(=O)=O)cn1 ?
Marked response: 48.2

* * *

Organism: Canis lupus familiaris
assay.comment: Selectivity of COX1 over COX2 in canine whole blood assay
Format: tissue-based
quantity.kind: Ratio IC50

* CC(C)(C)CNc1c(C#N)c(C(F)(F)F)nn1-c1ccc(S(C)(=O)=O)cn1 | > 217
* CC1CC(C)CN(c2c(C#N)c(C(F)(F)F)nn2-c2ccc(S(C)(=O)=O)cn2)C1 (configuration not stated) | > 526
* CS(=O)(=O)c1ccc(-n2nc(C(F)(F)F)c(C#N)c2N2CCCCC2)nc1 | > 325
* C[C@@H]1CN(c2c(C#N)c(C(F)(F)F)nn2-c2ccc(S(N)(=O)=O)cn2)C[C@H](C)O1 | > 6.3
* CS(=O)(=O)c1ccc(-n2nc(C(F)F)c(C#N)c2NCC2OCCO2)nc1 | > 259

Exam item: Quick one: Ratio IC50 of C[C@@H]1CN(c2c(C#N)c(C(F)F)nn2-c2ccc(S(N)(=O)=O)cn2)C[C@H](C)O1 ?
Marked response: > 10

Exam item: Quick one: Ratio IC50 of C[C@@H]1CN(c2c(C#N)c(C(F)(F)F)nn2-c2ccc(S(C)(=O)=O)cn2)C[C@H](C)O1 ?
Marked response: > 357

* * *

measured.on: Prostaglandin G/H synthase 1 (Canis lupus familiaris)
Sequence (Q8HZR1 whole entry): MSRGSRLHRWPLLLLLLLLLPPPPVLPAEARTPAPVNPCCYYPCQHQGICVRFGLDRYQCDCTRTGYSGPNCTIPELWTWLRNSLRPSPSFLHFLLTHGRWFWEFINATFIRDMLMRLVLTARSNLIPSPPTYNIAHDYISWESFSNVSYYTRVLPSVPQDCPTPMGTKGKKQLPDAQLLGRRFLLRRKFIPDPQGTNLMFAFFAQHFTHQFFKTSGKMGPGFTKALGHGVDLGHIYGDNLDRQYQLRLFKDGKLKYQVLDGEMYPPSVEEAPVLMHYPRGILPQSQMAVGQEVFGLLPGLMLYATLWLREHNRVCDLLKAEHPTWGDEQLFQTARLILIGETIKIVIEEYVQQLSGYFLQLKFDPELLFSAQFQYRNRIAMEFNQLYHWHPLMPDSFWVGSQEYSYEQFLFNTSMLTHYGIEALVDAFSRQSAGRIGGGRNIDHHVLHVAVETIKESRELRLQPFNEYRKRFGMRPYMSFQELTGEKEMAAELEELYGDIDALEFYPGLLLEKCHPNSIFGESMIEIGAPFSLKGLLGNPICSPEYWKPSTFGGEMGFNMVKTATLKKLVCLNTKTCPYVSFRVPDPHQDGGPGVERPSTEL
pIC50: −log10 of the molar value.
Below is a list of entries, each paired with its recorded pIC50 value.

Completed entries (count: 2):
• CS(=O)(=O)c1ccc(-n2nc(C(F)(F)F)c(C#N)c2NCC2OCCO2)nc1 = < 4.30
• CCC(C)CNc1c(C#N)c(C(F)F)nn1-c1ccc(S(N)(=O)=O)cn1 (stereo not drawn) = 5.40

# evaluate next
Exam item: Quick one: pIC50 of C[C@@H]1CN(c2c(C#N)c(C(F)(F)F)nn2-c2ccc(S(C)(=O)=O)cn2)C[C@H](C)O1 ?
Marked response: < 4.30
